The reported measurements were obtained from patent US6638951B1.

Number of ferrets showing vomiting values for the molecules below.
Tested on: male ferrets
procedure.text: Emetic action in ferrets
Format: in vivo
condition.info: 16 hours fasting, 10 mg/kg p.o., during 2 hours after administration, 8 tested ferrets per compound

[
  {
    "molecule": "CCOC(=O)CN1CCC(NC(=O)c2cc(Cl)c(N)cc2OC)CC1.Cl [Reference compound 2, reference compound]",
    "tested.on": "male ferrets",
    "Number of ferrets showing vomiting": 8
  },
  {
    "molecule": "CCCCOC(=O)CN1CCC(NC(=O)c2cc(Cl)c(N)cc2OC)CC1",
    "tested.on": "male ferrets",
    "Number of ferrets showing vomiting": 0
  },
  {
    "molecule": "COc1cc(N)c(Cl)cc1C(=O)NC1CCN(CC(=O)OCC(C)C)CC1",
    "tested.on": "male ferrets",
    "Number of ferrets showing vomiting": 1
  },
  {
    "molecule": "CCCCCCOC(=O)CN1CCC(NC(=O)c2cc(Cl)c(N)cc2OC)CC1",
    "tested.on": "male ferrets",
    "Number of ferrets showing vomiting": 1
  },
  {
    "molecule": "CCCCCOC(=O)CN1CCC(NC(=O)c2cc(Cl)c(N)cc2OC)CC1",
    "tested.on": "male ferrets",
    "Number of ferrets showing vomiting": 0
  },
  {
    "molecule": "CCCOC(=O)CN1CCC(NC(=O)c2cc(Cl)c(N)cc2OC)CC1",
    "tested.on": "male ferrets",
    "Number of ferrets showing vomiting": 2
  },
  {
    "molecule": "COc1cc(N)c(Cl)cc1C(=O)NC1CCN(CC(=O)O)CC1.Cl [Reference compound 1, reference compound]",
    "tested.on": "male ferrets",
    "Number of ferrets showing vomiting": 0
  }
]

* * *

Structures can show the parent of a compound that is named as a salt.

[
  {
    "compound": "COc1cc(N)c(Cl)cc1C(=O)NC1CCN(CC(=O)OC(C)C)CC1 (as salt: hydrochloride)",
    "melting point": "125 to 130 °C"
  },
  {
    "compound": "CCCCCCOC(=O)CN1CCC(NC(=O)c2cc(Cl)c(N)cc2OC)CC1 (as salt: hydrochloride)",
    "melting point": "133 to 137 °C"
  },
  {
    "compound": "COc1cc(N)c(Cl)cc1C(=O)NC1CCN(CC(=O)OCCC(C)C)CC1 (as salt: methanesulfonate)",
    "melting point": "199.5 to 201 °C"
  },
  {
    "compound": "CCCCOC(=O)CN1CCC(NC(=O)c2cc(Cl)c(N)cc2OC)CC1 (as salt: methanesulfonate) [Example 9]",
    "melting point": "111 to 112 °C"
  },
  {
    "compound": "COc1cc(N)c(Cl)cc1C(=O)NC1CCN(CC(=O)OCC(C)C)CC1 (as salt: methanesulfonate)",
    "melting point": "207 to 208 °C"
  },
  {
    "compound": "CCCOC(=O)CN1CCC(NC(=O)c2cc(Cl)c(N)cc2OC)CC1 (as salt: methanesulfonate)",
    "melting point": "209 to 210 °C"
  },
  {
    "compound": "CCCCOC(=O)CN1CCC(NC(=O)c2cc(Cl)c(N)cc2OC)CC1 (as salt: hydrochloride) [Example 8]",
    "melting point": "141 to 144 °C"
  },
  {
    "compound": "CCCCCOC(=O)CN1CCC(NC(=O)c2cc(Cl)c(N)cc2OC)CC1 (as salt: methanesulfonate)",
    "melting point": "202.5 to 203 °C"
  },
  {
    "compound": "CCCCOC(=O)CN1CCC(NC(=O)c2cc(Cl)c(N)cc2OC)CC1 (as salt: methanesulfonate) [Example 1]",
    "melting point": "209 to 211.5 °C"
  }
]
